Recorded self-cleavage by entry
B1: LINE1-mini (parent)
chain: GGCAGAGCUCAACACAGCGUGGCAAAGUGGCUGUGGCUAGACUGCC

Variants of: B1
METHOD: self-cleavage, relative activity (ratio to wild type); higher = more cleavage; in vitro, sequencing; the parent is a self-cleaving ribozyme
# output: bare number, no unit

{"VARIANT DESIGNATION": "A12U A26U", "self-cleavage": 0.28}
{"VARIANT DESIGNATION": "A4C G44A", "self-cleavage": 0.16}
{"VARIANT DESIGNATION": "A6U U43A", "self-cleavage": 0.13}

**Query** Return value of self-cleavage for input U32C U43G , no commentary.
**Result** 0.13

**Query** Return value of self-cleavage for input A12C G21U , no commentary.
**Result** 0.03

**Query** Return value of self-cleavage for input A14U G40A , no commentary.
**Result** 0.05

**Query** Return value of self-cleavage for input U9G G21A , no commentary.
**Result** 0.13

**Query** Return value of self-cleavage for input G1C C15G , no commentary.
**Result** 0.03

**Query** Return value of self-cleavage for input C8U C42A , no commentary.
**Result** 0.11

**Query** Return value of self-cleavage for input A41C C42A , no commentary.
**Result** 0.05

**Query** Return value of self-cleavage for input G17C G22A , no commentary.
**Result** 1.3
